Test Details: PET hydrolysis, aromatic products released after 48 h (umol product/mg enzyme); higher = more PET depolymerization activity
Applied Conditions: substrate: cryPow; 60 °C; pH 6.5
Observed Property: PET hydrolysis

* ADNPYQRGPAPTNTSIEATRGTYAVSTKTISALSARGFGGGTIYYPTSTADGTFGVVAISPGYTASQSTIAWLGPRLASFGFVVVTIDTTTRYDQPTSRGSQLLAALDQAIGDSTVGPRIDATRQAVVGHSMGGGGTLEAAKTRRSLEAAVPLTGWNLDKTWPEVEAATLVIGAQNDTVAPTTSHSIPFYNSLSGAERKAYLELRGASHFAPVTSNTTIAKHTLSWLKRYVDDDTRYEQFISPGPSTAIGSPVSDYRVN [DP022] | < 3
* ATPDHAATADHASAHHHAAYPVSQQTIPATDGTGFGAATLYAPQGTGRKTLGAIVVAPGLKGDQSDLAWLAQDLAGEGFIVLNMDTLGKYDLPNQRSYEMLAAAKYLATASSVKDQVDPADIGVVGYSLGGGGALQAAVEQHGLKAAVALMPYDFPAGTTDPYKPTESPTYPGITTPTLVITGQADTTAPAASMGKPAYDSIPASTPKQYLELRGADHLAARATTNGTVRDAVTNFLKVYLDGNSAYRKYVCPAPPTSAAISESASSCPR [ESM174] | < 3

Next:
Could you tell me which PET hydrolysis is on file for AGFERGPDPSTSTLDAARGPFAVAEERVYSWRASGFGGGDIYYPTTTSEGTFGVVAVAPGYTAGRSSMAWLASRIASHGFVVINIDTLTRSDQPASRGRQLLAALDHVTSSSGVRDRVDASRQAVVGHSMGGGGALEAASSRPALQAAVPLTPWNLTKRWSSLQVPTFIVGAENDSVASVRTHAEPFYESLPAALPKAYLELNNASHFAPNTTNSTIGRYTVAWLKRYVDDDLRYSQFLCPPPPPSSAIEEFRATC [DP087] ?
< 3

###

Overview of recorded purified protein yield per well for various sequences
Test Details: purified protein yield per well (BCA); higher = higher soluble expression

Use the examples below as a reference point.
- VEIGPAPTSTSLNSDGSFAVSSASVSSSACGSGCAGGTVYYPNTAGSYGVIAVCPGFTNTSSAISWFARRMATHGFVTIAMNTNSRYDFPASRATQLRAVLNYLVNSSSSTIRSRIRSADRGVSGYSMGGGGTLLASRDDSTLKTGVPMAPYNSGTISGVNVPQMIIGGSNDSIAPVSSMARPFYNNIPSTVKKALAVLNGASHLTFTSYDERAARYGVAFAKRFADGDTRYTPFLCGAEHTAYATSSRFTEYSSNCPY [ESM020]: < 25 µg
- ADNPYERGPDPTEQLIESARGPFATAQTRVSSLSVTGFGGGVIYYPTDTSQGTFGAVAISPGFTADWTSLDWLGPRLASHGFVVIGIDTITRLDQPDSRGRQLLAALDYLTQRSSVRSRVDASRLAVAGHSMGGGGSLEAAKSRTSLKAAIPLAPWNLDKTWPEVVTPTMIFGGELDTVAPVSTHAIPFYNSLTNAREKAYLEIDNGSHFFPNVSNTLVAKYMISWLKRYVDNDTRYEQFLCPVPDDRGLSDSRGTCPGS [TEP135]: < 25 µg

Next:
Could you tell me which purified protein yield per well is on file for AAPHASTAHHHAPFAVRTTVVPRTADAKFGGGVIYEPQDTGKPVLGAVVITPGFTDTNADEKEMAELVASQGFVAFAIDTLDVGDLPDQRATEILAAADYLTGQSAVKSQVSAKDLAFLGYSMGGGGTFQAAQARPSVKAAIGLMPFDIPDANDPNATTPSYPKLTTPSLVVTGQKDDVADPEYFGKPIYDSIPVGTPKQYLELTGLGHGAGEHVPAPTIRVAVTAFLKRYLDGNSAYAKYICPAPKVGGPVSASLSSCPQG [ESM176] ?
< 25 µg

###

Overview of recorded PET hydrolysis for various sequences
Test Details: PET hydrolysis, aromatic products released after 48 h (umol product/mg enzyme); higher = more PET depolymerization activity
Applied Conditions: substrate: cryPow; 60 °C; pH 8.5

Use the examples below as a reference point.
- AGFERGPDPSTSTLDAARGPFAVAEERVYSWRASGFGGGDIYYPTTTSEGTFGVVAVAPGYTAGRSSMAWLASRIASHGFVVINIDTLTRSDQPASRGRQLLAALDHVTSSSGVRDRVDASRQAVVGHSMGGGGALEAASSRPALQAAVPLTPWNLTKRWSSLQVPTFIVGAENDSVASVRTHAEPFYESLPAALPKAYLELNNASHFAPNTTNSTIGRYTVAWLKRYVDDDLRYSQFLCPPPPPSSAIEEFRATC [DP087]: < 3
- ATPARPASVAAAPAAVQRAADNPYQRGPAPTEASITAEKGPFAVETIPVPAGSGTGFNKGTVYAPTDTSEGTFGAIVVSPGFVSPEAWISWYGPRLASQGFVVMTLETNSLVDVPASRGDQLLAALDWLTGKSSVKNRIDASRTAVMGHSMGGGGTLEAANKRPSLKADIPLAPWDTNYNFPNIKTPTLIMGADNDLIAPASSMAESYYNNITTAPEKAYLLLKNAGHMTFVSPNTTIAKYSIAWMKRFVDNDTRYDQFLCPAPKPDANIAKYLDTCPNG [DP016]: < 3

Next:
Could you tell me which PET hydrolysis is on file for AGFEKGPDPTTASVTADRGSYDIAQVDVPKGSGTGFADGTIYYPKSTADGTFGAVAVIPGFLEPKSAIDWYGPRLASQGFVVMTLDTTSVFDTPDSRGGQLLAALDYLTSKSTVKDRIDPNRLAVVGHSMGGGGTLSAAANRPNLKAAVALAPWHVSAPLTSVKTPTMIFGSDNDFIAPDGTFAKPFYDGISNAPEKAYVRLKNAGHMAYVFPDKRIAEYTLSWLKRYVDDDTRYTQFLCPGPTNESTIAAYKSTCPM [DP093] ?
< 3

###

Test Details: PET hydrolysis, aromatic products released after 48 h (umol product/mg enzyme); higher = more PET depolymerization activity
Applied Conditions: substrate: cryPow; 40 °C; pH 4.5
Observed Property: PET hydrolysis

• MPQQAQAGPGNPYERGPAPTEASVTAERGPFAVSQKAVPESADGRFNKGTVYYPTDTSQGTFGAVAISPGFVSPEAAVGWLGPRLASQGFVVMTLETNTPLDFPDQRADQLLGALDWLTTSSDVRERIDASRLAVAGHSMGGGASLRASEKRPTLQAAVPLTPWHTDKTWEKDPVPTLVVGAENDTVAPVAEHAEPFYSSLSAAPEKAYLELEGADHLAPVAPNVTVAKYAISWLKRYVDDDTRYEQFLCPPPRPSSTISEYRDTCPGS [TEP193] = < 3
• QAPTRESLGAQGPYQVAYYSNFPAVQEFTAGTIYFPANKAQTFGAVAISPGFAERQENMSWWGRHLASHGFAVLTLDTNELRDDPAIRAEALMAALRVLSGESEREGSPLRGKIDTNRMAIMGHSMGGGGTLLAANTHSSELKAAIPFTPWQPDGDFSDVTVPTLIIAGEIDRVAPVNDHAWPHYQSLSASNPRLYLEIRGGNHFIANTAT [TEP038] = < 3
• MHPTPDRAKVLPVNVSRGPAEPPAARSARPGGRSAPDGLRPGRRRPVPSSEQGATDVQSHPPTPANRRTRTVATLALALTLVGGAGAIAPTAHAAAGHERGPNPTSAALEASRGPFSVSSTTVSSLSASGFGGGTIYYPNDTGQGTFGGVIVAPGFTASRSTMAWLAERLASHGFVVFNIDTITRSDQPDSRGRQLLAAADHLAEESSPAVRSRLDAGRIGVMGHSMGGGGTLAAAESRPSLQAAVPLTPWHTDKSWGSVQVPTMIIGAENDSVAPVSSHAEPFYNSLSSAQEKAYLELNGASHFAPNSSNSTLAKYSIAWMKRFVDDDLRYDQFLCPAPGRSTRIEEYRSSCPH [TEP081] = < 3
• QDNSQGRYRPEGRQIGVAAGREFGERIYEVRTYETNPGIAEFADVMVFYPLTLSFDRPNGAIAFSPGFRAAADNYEWWGPALASLGYNVFILNTNEPTDDLDARADALAALVDFIKAENANPDSPVANKIDEEKIALMGHSMGGGAALAAADRLGDAVGAVIPLALYCCNPGGSFEGDYGSLSAAALVIASAEDTVAPPEAHARLLYDSLGSENKIYMEFAAGDHMFPANGGPELATMGRFTLAFLKAYLDGVAGLEQHVTSPSDEYAERFSTYLAP [TEP035] = < 3
• AVHGPDPTDALLEASRGPYATAQIDVSALAVSGFGGGTIYYPTTTSEGTFGGVAIAPGYTADKSSLAWLAARLASHGFVVFNIDTLTRLDQPDSRGRQLLAALDYLTQRSSVRSRVDASRLGVMGHSMGGGGTLEAAVSRPSLRAAVPLTPWNLDKTWPEVRTPTLIIGADLDTIAPVLTHAEPFYASLPSTLDKAYLELNNATHFAPNITDTTIGKYAVAWMKRFIDDDTRYNRFLCPGPSWSLSVEEYRSTCPF [TEP061] = < 3

Next:
Could you tell me which PET hydrolysis is on file for ASPYERGPNPTAASVSATTGPFAIASVSVARGNGFGGGVIYYPTATNQGTFGGIAISPGLNGTWAGIAWLGPRLASQGFVVFGIETNNLNDSPTSRGTQLLAALDYLTQRSTVRTRVDAGRLAVMGHSMGGGGALDAALRRPSLQAAIGNAPHLPSGTLSNDRVPTMIYAMQNDTLVPPSRLTTLYNSIPATTERGYILVTGAGHNYIGQPSTTLARTMIPWFKIFIDDDTRYSQFLCPMSNQSGISQYRNSCPLS [ESM160] ?
< 3
